- assay: gradient 5% acetonitrile 3 min, to 50% in 2 min, to 85% in 15 min, held 3 min, 100 µL/min
- assay conditions: column: Zorbax Extend-C18 2.1 x 50 mm; eluents: water / acetonitrile, 0.1% formic acid
measure: RP-LC retention time (s)
Numbers only, in s.

- O=C(NCC(F)(F)F)C1CCN(C(=O)COc2ccccc2)CC1: 676
- CCN1CCN(CCCNC(=O)c2sc3ncccc3c2-n2c(C)ccc2C)CC1: 607
- Cc1ccc(NC(=O)CN2CCC(c3nc(-c4cccs4)no3)CC2)c(Cl)c1: 777
- O=C(CCC(=O)N1CCCC1c1nc2ccccc2s1)N1CCc2ccccc21 (centres undefined): 876
- COc1ccc(N2CC(c3noc(-c4cc(C)cc(C)c4)n3)CC2=O)cc1OC (centres undefined): 1010
- CC(C(=O)N1CC2CN(S(=O)(=O)c3cccc(F)c3)CC(C1)O2)c1ccccc1 (centres undefined): 878
- Cc1ccccc1CNS(=O)(=O)c1cn(C(C)C)c2ncccc12: 960
- CC(C)CCNC(=O)NCCn1nnc2cc(C(=O)N3CCCC3)ccc21: 657

Shifting focus to the compound that follows.
Per the record, "CCn1c(=O)c2ccccc2n(Cc2nc(-c3ccc(SC)cc3)no2)c1=O" has RP-LC retention time of 926

---

- assay: gradient 5% acetonitrile 3 min, to 50% in 2 min, to 85% in 15 min, held 3 min, 100 µL/min
- assay conditions: column: Zorbax Extend-C18 2.1 x 50 mm; eluents: water / acetonitrile, 0.1% formic acid
measure: RP-LC retention time (s)
Answers are plain numbers, in s.

Example cases with answers are listed next.
• CCOC(=O)c1cnc2nc(C)ccc2c1Nc1cc(F)cc(F)c1 = 736
• CCc1nnc(-c2ccc(S(=O)(=O)N3CCN(C4CCCCC4)CC3)o2)o1 = 637

Look at each compound and report its RP-LC retention time.
1. COc1ccc(-c2cc(N3CCN(C(=O)Cc4ccc(Br)cc4)CC3)n[nH]2)cc1
2. CCCNc1cc(N2CCC(CCC(=O)Nc3ccc(OCC)cc3)CC2)ncn1
3. CCOc1ccc(NC(=O)Cn2c(C)cc(-c3nnc(C4CCC4)o3)c2C)cc1
4. Cn1c(=O)n(CC(=O)O)c(=O)c2c1nc1n2CCN1c1ccc(F)cc1
5. COCCn1cc(C(=O)Nc2ccc(C(C)=O)cc2)c2nn(-c3ccccc3)c(=O)c-2c1

Response:
1: 842; 2: 736; 3: 896; 4: 704; 5: 865

Look at each compound and report its RP-LC retention time.
1. COc1ccc(-c2noc(Cn3cnc4c(oc5ccccc54)c3=O)n2)cc1OC
2. CCOC(=O)C1=C(C)N(CC(=O)NC(C)CC)c2ncnn2C1c1ccc(C)cc1 (centres undefined)

Response:
1: 846; 2: 910

---

- assay: gradient 5% acetonitrile 3 min, to 50% in 2 min, to 85% in 15 min, held 3 min, 100 µL/min
- assay conditions: column: Zorbax Extend-C18 2.1 x 50 mm; eluents: water / acetonitrile, 0.1% formic acid
measure: RP-LC retention time (s)
Answers are plain numbers, in s.

Example cases with answers are listed next.
- COc1ccc(CN(CCC2(C(C)C)CCOC(C)(C)C2)C(C)=O)cc1 (stereo not given): 987
- COc1ccc(-c2nccn3cc(C(=O)O)nc23)cc1: 672
- Cc1nn2c(CNC(=O)c3cccnc3)c(-c3ccccc3)nc2s1: 655
- CCN1c2cc(Cl)ccc2C(=O)NC12CCN(C(=O)Nc1ccc(OC)cc1)CC2: 895
- O=C(Nc1ccc2c(c1)OCCO2)c1ccnc(N2CCNC(c3ccccc3)C2)c1 (stereo not given): 638
- COc1cc(OC)cc(C(=O)Nc2cccc(C(C)=O)c2)c1: 753

Look at each molecule and report its RP-LC retention time.
1. O=C1CCc2cc(S(=O)(=O)NCc3ccco3)cc3c2N1CCC3
2. CCc1ccc(C2=C(C)C(N3CCCN(C(C)=O)CC3)=NS2(=O)=O)cc1
3. CCc1nnc(-c2ccc(=O)n(CC(=O)Nc3ccc(C)cc3F)c2)o1
4. COc1ccccc1N1CCN(C(=O)C2CCN(S(=O)(=O)c3cn(C(C)C)cn3)CC2)CC1
5. COc1ccc(N2CCN(C(=O)C3CCCN(c4ncnc5c4nc4n5CCCCC4)C3)CC2)cc1 (stereo not given)
6. O=C(NCc1cccc(Cl)c1)c1cc(C2CC2)n2nccc2n1
7. Cc1ccccc1-c1nc(-c2ccc(S(=O)(=O)N3CCCC3)cc2)no1

Response:
1: 677; 2: 745; 3: 692; 4: 716; 5: 738; 6: 974; 7: 1240

Look at each molecule and report its RP-LC retention time.
1. O=C(Nc1ccc(Br)cc1)Nc1ccccc1Cl
2. O=C(C(=O)N1CCN(c2ccccn2)CC1)c1ccc[nH]1
3. CCC(C)n1c(=O)c2ccccc2n(Cc2nc(-c3ccc(Br)cc3)no2)c1=O (stereo not given)
4. Cc1cc2c(cc1S(=O)(=O)N1CCC(C(=O)NCc3ccccc3Cl)CC1)OCC(=O)N2

Response:
1140
556
1320
789
